methodNotes: Tanguay_ZF_120hpf_MORT_legacy: (Legacy) Oregon State University Tanguay Lab 120 Hour Post-fertilization zebrafish Assay for Mortality (AID 2283633)
Active and inactive are the calls of the source. The calls were made as follows: active = hit-call score of the fitted dose curve at least 0.9, where 1 is the maximum; inconclusive = response in the unintended direction; inactive = score below 0.9.
Your answer must be one of the following: active, inactive

Look over these answered cases.
CC(C)N(C(=O)SCC(Cl)=C(Cl)Cl)C(C)C	inactive
CCC(=NOC/C=C/Cl)C1=C(O)CC(C2CCOCC2)CC1=O (stereo not drawn)	inactive
CCCCOC(=O)[C@@H](C)Oc1ccc(Oc2ccc(C#N)cc2F)cc1	inactive
N#CSCSC#N	active
C=C(C)[C@H]1Cc2c(ccc3c2O[C@@H]2COc4cc(OC)c(OC)cc4[C@@H]2C3=O)O1	active
CN(C)C(=O)Nc1cccc(C(F)(F)F)c1	inactive
CON=C(C(=O)OC)c1ccccc1CON=C(C)c1cccc(C(F)(F)F)c1	inactive
CCCCN(CC)c1c([N+](=O)[O-])cc(C(F)(F)F)cc1[N+](=O)[O-]	inactive

Hey, what did the test say about CCOC(=O)COc1cc(-c2nn(C)c(OC(F)F)c2Cl)c(F)cc1Cl ?
inactive

Hey, what did the test say about CC[C@H](C)[C@H]1O[C@]2(C=C[C@@H]1C)C[C@@H]1C[C@@H](C/C=C(\C)[C@@H](O[C@H]3C[C@H](OC)[C@@H](O[C@H]4C[C@H](OC)[C@@H](NC)[C@H](C)O4)[C@H](C)O3)[C@@H](C)/C=C/C=C3\CO[C@@H]4[C@H](O)C(C)=C[C@@H](C(=O)O1)[C@]34O)O2 ?
active

Hey, what did the test say about CC(Oc1cccc(Cl)c1)C(=O)O (stereo not drawn) ?
inactive

Hey, what did the test say about CNC(=O)ON=C(C)SC ?
inactive

Hey, what did the test say about COP(=O)(OC)OC(Br)C(Cl)(Cl)Br (stereo not drawn) ?
inactive

Hey, what did the test say about C#CC(C)(C)NC(=O)c1cc(Cl)cc(Cl)c1 ?
inactive

Hey, what did the test say about O=c1ccc(=O)[nH][nH]1 ?
inactive

* * *

methodNotes: CCTE_Shafer_MEA_acute_firing_rate_mean: CCTE's Neural Acute Assay for Mean Firing Rate, Shafer Lab (AID 2284009);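 also: analyzed for loss of signal so actives lower firing rate relative to DMSO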
Activity calls are given as the source filed them. The calls were made as follows: active = hit-call score of the fitted dose curve at least 0.9, where 1 is the maximum; inactive = score below 0.9.
Your answer must be one of the following: active, inactive

CN(C)[C@@H]1C(=O)C(C(N)=O)=C(O)[C@@]2(O)C(=O)C3=C(O)c4c(O)cccc4[C@@](C)(O)[C@H]3[C@H](O)[C@@H]12	inactive
CC(C)=CC1C(C(=O)OCN2C(=O)C3=C(CCCC3)C2=O)C1(C)C (centres undefined)	inactive
C[N+]1(C)CCCCC1	inactive
CN(C)NC(=O)CCC(=O)O	inactive
COP(=O)(OC)C(O)C(Cl)(Cl)Cl (centres undefined)	inactive

Hey, what did the test say about COc1cc(OC)nc(Sc2cccc(Cl)c2C(=O)O)n1 ?
inactive

Hey, what did the test say about FC(F)C(F)(F)OCC(Cn1cncn1)c1ccc(Cl)cc1Cl (centres undefined) ?
active

Hey, what did the test say about CNC(=O)ON=C(SC)C(=O)N(C)C ?
inactive

Hey, what did the test say about C[Si](Cn1cncn1)(c1ccc(F)cc1)c1ccc(F)cc1 ?
active

* * *

Read-out: Interleukin 6 (IL6), IL6 (gene 3569)
methodNotes: LTEA_HepaRG_IL6: Life Technologies and Expression Analysis (LTEA) Assay for Interleukin 6 (IL6) using HepaRG (AID 2283509)
conditionLabel: mRNA level, 48 h; actives raise or lower the signal
Activity calls are given as the source filed them. The calls were made as follows: active = hit-call score of the fitted dose curve at least 0.9, where 1 is the maximum; inactive = score below 0.9.
attributeMeasured: outcome

Answered cases to consult:
CCOP(=O)(OCC)Oc1cc(C)nc(C(C)C)n1	inactive
CCC(=O)Nc1ccc(Cl)c(Cl)c1	inactive
COP(=O)(OC)SCn1c(=O)oc2cc(Cl)cnc21	inactive
CCCCOC(=O)c1ccccc1C(=O)O	inactive
CCc1cccc(CC)c1N(COC)C(=O)CCl	inactive

Working through the 7 compounds below one at a time, give outcome for each.
1. CN(C)NC(=O)CCC(=O)O
2. CSc1nc(NC(C)C)nc(NC(C)C)n1
3. COP(=O)(OC)C(O)C(Cl)(Cl)Cl (stereo not drawn)
4. CC(COc1ccc(Oc2ccccc2)cc1)Oc1ccccn1 (stereo not drawn)
5. O=C(O)c1cc(Oc2ccc(C(F)(F)F)cc2Cl)ccc1[N+](=O)[O-]
6. Cc1ccn2nc(S(=O)(=O)Nc3c(F)cccc3F)nc2n1
7. CC(C)N(C(=O)SCC(Cl)=C(Cl)Cl)C(C)C

["inactive", "inactive", "inactive", "inactive", "inactive", "inactive", "inactive"]
